Exercise: for every item that follows, state its recorded AC50.
Test system: rat Monoamine Oxidase, MAO-A, Central (MAOAC), gene 29253
Experiment: NVS_ENZ_rMAOAC: NovaScreen (NVS) Enzymatic Assay for rat Monoamine Oxidase, MAO-A, Central (MAOAC) (AID 2283243);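 further: potency refers to inhibition seen as signal drop below DMSO baseline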
The source made the active and inactive calls. How the source made its calls: active means hit-call score of the fitted dose curve at least 0.9, where 1 is the maximum; inconclusive means response in the unintended direction; inactive means score below 0.9.

{"Compound": "CN(C)C(=O)Nc1ccc(Cl)cc1", "AC50": "25 µM (active)"}
{"Compound": "O=C(N[C@H](c1ccccc1)[C@@H]1CN2CCC1CC2)c1c(Cl)ccc(C(F)(F)F)c1Cl", "AC50": "37.5 µM (active)"}
{"Compound": "Nc1ccc([N+](=O)[O-])cc1", "AC50": "36.3 µM (active)"}
{"Compound": "CCOc1cccc(C2(N3CCN(c4ccccc4)CC3)CCC(C)CC2)c1 (stereo unspecified)", "AC50": "4.53 µM (active)"}

Query: Item: Oc1ccc2ccc3cccc4ccc1c2c34 Test system: rat Monoamine Oxidase, MAO-A, Central (MAOAC), gene 29253 Read-out: AC50 Value: ?
Reply: 0.255 µM (active)

====

Exercise: for every item that follows, state its recorded AC50.
Tested on: SERPINA7 (gene 6906)
Test: CCTE_GLTED_hTBG: CCTE's human Thyroxine-binding Globulin (TBG) Inhibition Assay, Great Lakes Toxicology and Ecology Division (GLTED) Lab (AID 2284343);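 further: active chemicals lower fluorescence versus DMSO baseline by displacing probe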
Activity calls are given as the source filed them. Rule for the calls: active = hit-call score of the fitted dose curve at least 0.9, where 1 is the maximum; inconclusive = response in the unintended direction; inactive = score below 0.9.

{"Compound": "c1ccc(NNc2ccccc2)cc1", "AC50": "39.1 µM (active)"}
{"Compound": "CS(=O)(=O)NC(=O)c1cc(Oc2ccc(C(F)(F)F)cc2Cl)ccc1[N+](=O)[O-]", "AC50": "16.1 µM (active)"}
{"Compound": "CC(C)(C)C(O)(CCc1ccc(Cl)cc1)Cn1cncn1 (stereo not drawn)", "AC50": "26.9 µM (active)"}
{"Compound": "CCCCOC(=O)c1ccccc1C(=O)OCc1ccccc1", "AC50": "2.23 µM (active)"}
{"Compound": "COP(=S)(OC)SCN1C(=O)c2ccccc2C1=O", "AC50": "37.5 µM (active)"}
{"Compound": "Nc1ccc(Oc2ccc(N)cc2)cc1", "AC50": "25.3 µM (active)"}
{"Compound": "CC(C)COC(=O)c1ccccc1C(=O)OCC(C)C", "AC50": "16.1 µM (active)"}

// below: AC50 requested for another compound
Query: Which value of AC50 has been reported for Brc1ccc(Oc2ccccc2)cc1 in the records?
Reply: 45.4 µM (active)

====

Experiment: APR_HepG2_CellLoss_72hr: Apredica 72-hour HepG2 Assay for Cell Loss (AID 2282915)
Details: high-content imaging
Active and inactive are the calls of the source. The calls were made as follows: active = hit-call score of the fitted dose curve at least 0.9, where 1 is the maximum; inactive = score below 0.9.
Property name: AC50

{"Compound": "Nc1ccc(Cc2ccc(N)cc2)cc1", "AC50": "inactive"}
{"Compound": "O=C(Nc1ccccc1)c1ccccc1I", "AC50": "61.8 µM (active)"}
{"Compound": "C[C@]12C=CC3=C4CCC(=O)C=C4CC[C@H]3[C@@H]1CC[C@@H]2O", "AC50": "21.7 µM (active)"}
{"Compound": "Nc1ccc(N=Nc2ccccc2)cc1", "AC50": "99.4 µM (active)"}
{"Compound": "Clc1ccc(C(c2ccc(Cl)cc2)C(Cl)(Cl)Cl)cc1", "AC50": "50.5 µM (active)"}
{"Compound": "CCC12COCN1COC2", "AC50": "inactive"}

Could I get AC50 for every one of these entries?
1. N#CC(Br)(Br)C(N)=O
2. ClC1=C(Cl)C2(Cl)C3C(Cl)C=CC3C1(Cl)C2(Cl)Cl (stereo not given)
3. Nc1ccc(Oc2ccc(N)cc2)cc1

Reply:
1. inactive
2. 56 µM (active)
3. inactive

Could I get AC50 for every one of these entries?
1. Nc1cc(Cl)cc(C(=O)O)c1Cl
2. Cc1ccc(N)cc1
3. O=C(N[C@H](c1ccccc1)[C@@H]1CN2CCC1CC2)c1c(Cl)ccc(C(F)(F)F)c1Cl

Reply:
1: inactive; 2: inactive; 3: 64 µM (active)

Could I get AC50 for every one of these entries?
1. c1ccc(NNc2ccccc2)cc1
2. C[N+](C)(C)CC1CO1 (stereo not given)
3. c1ccc2c(c1)oc1ccccc12

Reply:
97.9 µM (active)
inactive
inactive

====

Experiment: ATG_MRE_CIS: Attagene CIS-FACTORIAL HepG2 Assay for human Metal Responsive Element (MRE) (AID 2282954)
Conditions: HepG2 MRE cis-reporter transcription, Attagene multiplex; actives raise or lower the signal
Active and inactive are the calls of the source. The calls were made as follows: active = hit-call score of the fitted dose curve at least 0.9, where 1 is the maximum; inactive = score below 0.9.
Respond only with the outcome that fits, drawn from Yes (active), No (inactive)

Check out these entries, answers already filled in.
{"Compound": "CN(C)[C@@H]1C(=O)C(C(N)=O)=C(O)[C@@]2(O)C(=O)C3=C(O)c4c(O)cccc4[C@@](C)(O)[C@H]3C[C@@H]12", "Answer label": "No"}
{"Compound": "Cc1ccc(N)c(N)c1", "Answer label": "Yes"}
{"Compound": "Cc1ccc(N=C=O)cc1N=C=O", "Answer label": "No"}
{"Compound": "N#CC(Br)(Br)C(N)=O", "Answer label": "No"}
{"Compound": "C=CCc1ccc2c(c1)OCO2", "Answer label": "No"}

Query: // param item: CC(O)CCO (stereo not given) ; yields the recorded call
Reply: No

Query: // param item: O=C1CCCO1 ; yields the recorded call
Reply: No

====

Read-out: Vascular cell adhesion molecule 1 (VCAM1), VCAM1 (gene 7412)
Test: BSK_hDFCGF_VCAM1: BioMAP Diversity Plus: hDFCGF Assay for Vascular cell adhesion molecule 1 (VCAM1) Biomarker Activity (AID 2283065)
Conditions: primary human foreskin fibroblasts; actives raise or lower the signal
Active and inactive are the calls of the source. Rule for the calls: active = hit-call score of the fitted dose curve at least 0.9, where 1 is the maximum; inactive = score below 0.9.
Respond only with the outcome that fits, drawn from label 1 (active), label 0 (inactive)

Query: // param item: CCCCCOC(=O)c1ccccc1C(=O)OCCCCC ; yields the recorded call
Reply: label 1

Query: // param item: [O-][Cl+]O ; yields the recorded call
Reply: label 0

Query: // param item: ClC1=C(Cl)C2(Cl)C3C(Cl)C=CC3C1(Cl)C2(Cl)Cl (stereo not given) ; yields the recorded call
Reply: label 1

Query: // param item: C[N+](C)(C)CC1CO1 (stereo not given) ; yields the recorded call
Reply: label 0

Query: // param item: CCCCCCCCn1sccc1=O ; yields the recorded call
Reply: label 1

Query: // param item: CS(=O)(=O)NC(=O)c1cc(Oc2ccc(C(F)(F)F)cc2Cl)ccc1[N+](=O)[O-] ; yields the recorded call
Reply: label 0

Query: // param item: CCN(CC)N=O ; yields the recorded call
Reply: label 0

Query: // param item: Clc1ccc(Cl)c(Cl)c1 ; yields the recorded call
Reply: label 0

Query: // param item: COC(=O)c1ccccc1N ; yields the recorded call
Reply: label 0

Query: // param item: OCCOCCO ; yields the recorded call
Reply: label 0

Query: // param item: O=C(N[C@H](c1ccccc1)[C@@H]1CN2CCC1CC2)c1c(Cl)ccc(C(F)(F)F)c1Cl ; yields the recorded call
Reply: label 0

Query: // param item: COP(=S)(OC)SCN1C(=O)c2ccccc2C1=O ; yields the recorded call
Reply: label 0

Query: // param item: c1ccc2c(c1)-c1cccc3cccc-2c13 ; yields the recorded call
Reply: label 0

Query: // param item: CCCCCCCCCCCCCN1CC(C)OC(C)C1 (stereo not given) ; yields the recorded call
Reply: label 0

Query: // param item: Cc1cccc(N)c1N ; yields the recorded call
Reply: label 0

Query: // param item: O=[N+]([O-])c1ccc(Oc2ccc(Cl)cc2Cl)cc1 ; yields the recorded call
Reply: label 1

====

Experiment: ATG_TGFb_CIS: Attagene CIS-FACTORIAL HepG2 Assay for human Transforming Growth Factor (TGF) (AID 2282967)
Conditions: HepG2 Attagene CIS TGFb reporter, mRNA transcription; actives raise or lower the signal
Calls of active or inactive are those of the source. How the source made its calls: active means hit-call score of the fitted dose curve at least 0.9, where 1 is the maximum; inactive means score below 0.9.
Property name: outcome

Consider the reported outcome for these compounds:
{"Structure": "c1ccc2c(c1)-c1cccc3cccc-2c13", "Result": "inactive"}
{"Structure": "Cc1ccc(N=C=O)cc1N=C=O", "Result": "inactive"}
{"Structure": "CNC(=O)Oc1cccc2c1OC(C)(C)C2", "Result": "inactive"}
{"Structure": "Oc1ccccc1Cl", "Result": "inactive"}

Could I get outcome for every one of these entries?
1. COP(=S)(OC)SCN1C(=O)c2ccccc2C1=O
2. CN(C)[C@@H]1C(=O)C(C(N)=O)=C(O)[C@@]2(O)C(=O)C3=C(O)c4c(O)cccc4[C@@](C)(O)[C@H]3C[C@@H]12

Reply:
inactive
inactive

====

Experiment: APR_HepG2_CellCycleArrest_72hr: Apredica 72-hour HepG2 Assay for Cell Cycle Arrest (AID 2282914)
Conditions: high-content imaging, actives raise or lower the signal
The source made the active and inactive calls. How the source made its calls: active means hit-call score of the fitted dose curve at least 0.9, where 1 is the maximum; inactive means score below 0.9.
Respond only with the outcome that fits, drawn from active, inactive

Check out these entries, answers already filled in.
{"Compound": "Nc1ccc(Cc2ccc(N)cc2)cc1", "Answer label": "inactive"}
{"Compound": "CC(C)(O)c1cnn2c(-c3ccc(F)c(-c4c(F)cccc4C#N)c3)cnc2n1", "Answer label": "inactive"}
{"Compound": "COP(=S)(OC)SCN1C(=O)c2ccccc2C1=O", "Answer label": "inactive"}
{"Compound": "C[N+](C)(C)CC1CO1 (configuration not stated)", "Answer label": "inactive"}
{"Compound": "CCNS(=O)(=O)C(F)(F)C(F)(F)C(F)(F)C(F)(F)C(F)(F)C(F)(F)C(F)(F)C(F)(F)F", "Answer label": "active"}
{"Compound": "COc1cc(C=O)cc2c1[C@H](COC(N)=O)[C@]1(OC(C)=O)ON2C[C@H]2[C@@H]1N2C(C)=O", "Answer label": "inactive"}

Query: // param item: ClCCOCCCl ; yields the recorded call
Reply: inactive

Query: // param item: CCCCCCCCCCCCCN1CC(C)OC(C)C1 (configuration not stated) ; yields the recorded call
Reply: active

Query: // param item: CCC(C)c1ccc(O)cc1 (configuration not stated) ; yields the recorded call
Reply: inactive

Query: // param item: CC(C)(OOC(C)(C)c1ccccc1)c1ccccc1 ; yields the recorded call
Reply: inactive

Query: // param item: Cc1ccc([N+](=O)[O-])cc1 ; yields the recorded call
Reply: inactive

Query: // param item: [O-][Cl+]O ; yields the recorded call
Reply: inactive

Query: // param item: Cc1ccc(N)c(N)c1 ; yields the recorded call
Reply: inactive

Query: // param item: CCC[CH2][Sn]([Cl])([CH2]CCC)[CH2]CCC ; yields the recorded call
Reply: active

Query: // param item: Clc1ccc(C(c2ccc(Cl)cc2)C(Cl)Cl)cc1 ; yields the recorded call
Reply: active

Query: // param item: Cn1cc(-c2ccccc2)c(=O)c(-c2cccc(C(F)(F)F)c2)c1 ; yields the recorded call
Reply: active

Query: // param item: CCCSC(=O)N(CCC)CCC ; yields the recorded call
Reply: inactive

Query: // param item: Brc1ccc(Oc2ccccc2)cc1 ; yields the recorded call
Reply: inactive

Query: // param item: Oc1ccc2ccc3cccc4ccc1c2c34 ; yields the recorded call
Reply: inactive

Query: // param item: CN(C)[C@@H]1C(=O)C(C(N)=O)=C(O)[C@@]2(O)C(=O)C3=C(O)c4c(O)cccc4[C@@](C)(O)[C@H]3C[C@@H]12 ; yields the recorded call
Reply: inactive
